# Lookup of reported t1/2 keyed by entry
ASSAY: Metabolic stability in human intestine S9 fraction assessed as half life at 2.5 uM measured upto 120 mins in presence of NADPH by LC-MS analysis
Type: ADME, subcellular
CONDITION: s9, 2 h
ENDPOINT_LABEL: t1/2 (h)

{"STRUCTURE_SMILES": "CN(C)CCc1c[nH]c2cccc(OC(=O)OCc3ccccc3)c12", "ENDPOINT_LABEL": "t1/2", "UNIT_TEXT": "h", "VALUE_REPORTED": 8.82}
{"STRUCTURE_SMILES": "CC(C)[Si](Oc1cccc2[nH]cc(CCN(C)C)c12)(C(C)C)C(C)C", "ENDPOINT_LABEL": "t1/2", "UNIT_TEXT": "h", "VALUE_REPORTED": 0.95}
{"STRUCTURE_SMILES": "CC(C)[Si](C(C)C)(C(C)C)n1cc(CCN(C)C)c2c(OCc3ccc(F)cc3)cccc21", "ENDPOINT_LABEL": "t1/2", "UNIT_TEXT": "h", "VALUE_REPORTED": 1.07}
{"STRUCTURE_SMILES": "CN(C)CCc1c[nH]c2cccc(OC(=O)c3c(F)c(F)c(F)c(F)c3F)c12", "ENDPOINT_LABEL": "t1/2", "UNIT_TEXT": "h", "VALUE_REPORTED": 0.933}
{"STRUCTURE_SMILES": "CN(C)CCc1c[nH]c2cccc(OC(=O)OCC3CC3)c12", "ENDPOINT_LABEL": "t1/2", "UNIT_TEXT": "h", "VALUE_REPORTED": 5.45}

###

ASSAY: Metabolic stability in human intestine S9 fraction assessed as half life at 2.5 uM measured upto 120 mins in presence of NADPH by LC-MS analysis
Type: ADME, subcellular
CONDITION: s9, 2 h
Please map values of t1/2 to classes as shown: low = under 40 min, mid = from 40 min up to 100 min, high = 100 min and over

{"STRUCTURE_SMILES": "CN(C)CCc1c[nH]c2cccc(OC(=O)CC3CC3)c12", "CAT": "high"}
{"STRUCTURE_SMILES": "CN(C)CCc1cn(C(=O)OCc2ccccc2)c2cccc(OC(=O)OCc3ccccc3)c12", "CAT": "low"}
{"STRUCTURE_SMILES": "CC(C)[Si](C(C)C)(C(C)C)n1cc(CCN(C)C)c2c(OC(=O)OCC3CC3)cccc21", "CAT": "low"}
{"STRUCTURE_SMILES": "CC(C)OC(=O)OCOc1cccc2c1c(CCN(C)C)cn2COC(=O)OC(C)C", "CAT": "high"}
{"STRUCTURE_SMILES": "COCCOCCOCC(=O)Oc1cccc2[nH]cc(CCN(C)C)c12", "CAT": "mid"}
{"STRUCTURE_SMILES": "COc1ccc(C(=O)Oc2cccc3[nH]cc(CCN(C)C)c23)cc1", "CAT": "high"}
{"STRUCTURE_SMILES": "CCC(=O)Oc1cccc2c1c(CCN(C)C)cn2[Si](C(C)C)(C(C)C)C(C)C", "CAT": "low"}
{"STRUCTURE_SMILES": "CC(C)[Si](C(C)C)(C(C)C)n1cc(CCN(C)C)c2c(OC(=O)Sc3ccccc3)cccc21", "CAT": "low"}
{"STRUCTURE_SMILES": "CN(C)CCc1c[nH]c2cccc(OC(=O)SCc3ccccc3)c12", "CAT": "mid"}
{"STRUCTURE_SMILES": "CCC(=O)OCOc1cccc2c1c(CCN(C)C)cn2C(=O)CC", "CAT": "mid"}
{"STRUCTURE_SMILES": "CCCC(=O)OCOc1cccc2[nH]cc(CCN(C)C)c12", "CAT": "high"}
{"STRUCTURE_SMILES": "CN(C)CCc1c[nH]c2cccc(OC(=O)c3cccc(C(=O)Oc4cccc5[nH]cc(CCN(C)C)c45)c3)c12", "CAT": "high"}
{"STRUCTURE_SMILES": "CN(C)CCc1c[nH]c2cccc(OP(=O)(Oc3ccccc3)Oc3ccccc3)c12", "CAT": "mid"}
{"STRUCTURE_SMILES": "CC(C)[Si](C(C)C)(C(C)C)n1cc(CCN(C)C)c2c(OC(=O)c3ccc(Br)cc3)cccc21", "CAT": "low"}
{"STRUCTURE_SMILES": "CN(C)CCc1c[nH]c2cccc(OC(=O)c3ccc(Br)cc3)c12", "CAT": "mid"}
{"STRUCTURE_SMILES": "CN(C)CCc1c[nH]c2cccc(OC(=O)OCC(Cl)(Cl)Cl)c12", "CAT": "high"}
